- target-desc: T1, recombinantly expressed human NOGO-A (hNOGO) (human, UniProt Q9NQC3 586-785, limits assumed)
- T1 sequence (looked up): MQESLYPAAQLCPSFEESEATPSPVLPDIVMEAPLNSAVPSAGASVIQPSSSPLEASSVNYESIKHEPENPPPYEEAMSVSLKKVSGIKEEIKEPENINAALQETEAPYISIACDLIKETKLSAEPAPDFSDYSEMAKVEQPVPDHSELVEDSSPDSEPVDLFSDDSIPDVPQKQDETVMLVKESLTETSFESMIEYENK
- assay-notes: SPR, Biacore3000; hNOGO amine-coupled to CM5 chip, antibody in solution
Overview of recorded kon for various binders
Please give a number only; it is taken to be in M⁻¹ s⁻¹.

A selection of reference data follows.
Anti-NOGO antibody 2C4/1 (mouse monoclonal) (antibody, V domains shown, Mouse hybridoma antibody; also called Mouse 2C4) VH: EVQLVESGGGLVKPGGSLKLSCAASGFTFSCYAMSWVRQTPEKRLEWVASISDGGSYTYYPDNVKGRFTISRDNAKNNLYLQMSHLKSEDTAMYYCAKELLFDYWGQGTTLTVSS VL: DVVMTQTPLSLPVSLGDQASISCRSSQSLVHSNGNTYLHWYLQKPGQSPKLLIYKVSNRFSGVPDRFSGSGSGTDFTLKISRVEAEDLGVYFCSQSTHVPLTFGAGTKLELK ... 80900
Humanised anti-NOGO antibody H1L11 (antibody, V domains shown, It was expressed transiently in CHO cells; also called H1l L11) VH: QVQLVQSGAEVKKPGASVKVSCKASGYTFTSYWMHWVRQAPGQGLEWMGNINPSNGGTNYNEKFKSRVTMTRDTSTSTVYMELSSLRSEDTAVYYCELGQGYWGQGTTVTVSS VL: DIVITQSPLSLPVTLGQPASISCRSSKSLLYKDGKTYLNWFQQRPGQSPQLLIYLMSTRASGVPDRFSGGGSGTDFTLKISRVEAEDVGVYYCQQLVEYPLTFGQGTKLEIK ... 1e+06

**Q:** Supply kon value. Item: Chimeric 2A10 (HcLc) (antibody, human IgG1, kappa, V domains shown, Murine 2A10 V regions on human IgG1/k wild type C regions; also called chimaera of 2A10; the chimera) VH: QVQLQQPGTELVKPGASVKLSCKASGYTFTSYWMHWVKQRPGQGLEWIGNINPSNGGTNYNEKFKSKATLTVDKSSSTAYMQLSSLTSEDSAVYYCELGQGYWGQGTLVTVSS VL: DIVITQDELSNPVTSGESVSISCRSSKSLLYKDGKTYLNWFLQRPGQSPQLLIYLMSTRASGVSDRFSGSGSGTDFTLEISRVKAEDVGVYYCQQLVEYPLTFGAGTKLELKR
**A:** 2.23e+06

Numbers sourced from patent US20070065430A1.
